# System: Staphylococcus aureus (methicillin-resistant and sensitive clinical isolates; ATCC29213)
# protocol_notes: MIC by micro broth dilution (CLSI), Staphylococcus aureus
# Assay type: cell-based
# setup_conditions: Standard strain ATCC29213, read-out: MIC
measurement_kind: MIC (µg/mL)

A = O=[N+]([O-])c1cc(F)c2c(Cl)ccnc2c1O [Example 68, 4-Chloro-5-fluoro-7-nitroquinolin-8-ol]
B = [2H]c1ccnc2c(O)c([N+](=O)[O-])cc(Cl)c12 [Example 120, 5-chloro-7-nitroquinolin-4-d-8-ol]
C = O=[N+]([O-])c1cc(Cl)c2c(Cl)ccnc2c1O [Example 29, 4,5-dichloro-7-nitroquinolin-8-ol]
D = CC(=O)N1CCN(c2ccnc3c(O)c([N+](=O)[O-])cc(Cl)c23)CC1 [Example 33]
In ascending order of recorded MIC, list the molecules from the set above. Answer format: the labels, ordered as requested.
C, A, B, D

---

# Tested on: Prostate cancer cell line LNcaP
# protocol_notes: Inhibitory activity on cancer cells, CellTiter-Glo viability, LNcaP
# Format: cell-based
# setup_conditions: Homo sapiens, 72 hours treatment
# Protocol: HUVEC (purchased from Allcells Biological Technology (Shanghai) Co., Ltd.); UM-UC-3 (ATCC); LNCaP (ATCC); RM-1 (purchased from Nanjing Cobioer Biosciences Co., Ltd.) (1) On the first day, the cells were seeded in a 96-well plate, and the previous medium was poured off. 5 mL of DPBS was added to wash the cells, and then removed by a pipette and discarded. […] New corresponding medium was added, and pipetted to resuspend the cells evenly, and the cells were then counted with an automated cell counter. […]
pIC50: −log10 of the molar value.
measurement_kind: pIC50

Previously resolved entries follow.
O=[N+]([O-])c1cc(Cl)c2c(OC3CCCC3)ccnc2c1O; 5.82
CC(C)OC(=O)N1CCN(c2ccnc3c(O)c([N+](=O)[O-])cc(Cl)c23)CC1; 6.05
COCCCOC1CCN(c2ccnc3c(O)c([N+](=O)[O-])cc(Cl)c23)CC1.Cl.Cl [Example 54, dihydrochloride]; 6.60
O=[N+]([O-])c1cc(Cl)c2c(C3CC3)ccnc2c1O; 5.98
O=[N+]([O-])c1cc(Cl)c2c(N3CCC(C(F)(F)F)CC3)ccnc2c1O; 6.37

A = O=[N+]([O-])c1ccc(O)c2ncccc12 [Nitroxoline, nitroxoline, reference compound]
B = CC(C)C(=O)N1CCN(c2ccnc3c(O)c([N+](=O)[O-])cc(Cl)c23)CC1
C = O=[N+]([O-])c1cc(Cl)c2c(OCC3CC3)ccnc2c1O
Sort low-to-high on pIC50, please. Answer format: the labels, ordered as requested.
A, B, C

a = CN1CCN(c2ccnc3c(O)c([N+](=O)[O-])cc(Cl)c23)CC1
b = O=[N+]([O-])c1ccc2c(C(F)(F)F)ccnc2c1O
Compare the recorded pIC50 of a and b ; state which is larger. Returns: label corresponding to the selected item.
b
(b: 5.60, a: 4.90)

a = CCC(C)OC(=O)N1CCN(c2ccnc3c(O)c([N+](=O)[O-])cc(Cl)c23)CC1 (centres unmarked)
b = CC1CCCCN1c1ccnc2c(O)c([N+](=O)[O-])ccc12 (centres unmarked)
Compare the recorded pIC50 of a and b ; state which is larger. Returns: label corresponding to the selected item.
a

I = O=[N+]([O-])c1cc(Cl)c2c(N3CCCC3)ccnc2c1O
II = Cl.O=[N+]([O-])c1cc(Cl)c2c(OCc3ccccc3)ccnc2c1O [Example 67, hydrochloride]
III = O=[N+]([O-])c1ccc2c(C3CCCCC3)ccnc2c1O
Highest pIC50 first, then in falling order down to the smallest. Answer format: the labels, ordered as requested.
III, II, I
